- target_entity: biotinylated HCV core peptide 134-154 (Peptide 1) (HCV-1)
- measurement_protocol: EIA, captured mAb
measure_name: Reactivity (OD492) (OD)
Answers are plain numbers, in OD.

The cases that follow already have their Reactivity (OD492) on record.
HCV 208A-207 (antibody, V domains shown) VH: QGQLQQPGAEFVKPGASLKLSCRASGYTFTSYWIHWVKQRPGQGLEWIGEIDPSDSYINQNQKFRGKATLTVDKSSSTAYMELSGLTSEDSAVYYCARHYYGVLDSWGQGTTLTVSS VL: DIVLTQSPATLSVTPGDRVSLSCRASQRIYNYLHWYQQKSHESPRLLTKYASQSISGIPSRFSGSGSGTDFILTINSVETEDFGMYFCQQSNSWPLTFGAGTKLELRR : 1.24
HCV 208A-557 (antibody, V domains shown) VH: QGQMQQSGAELVKPGASVKLSCKTSGFTFSSSYISWLKQKPGQSLEWIAWIYAGTGNTNYNQKFTDKAQLTVDTSSSTAYMQLSSLTTEDSAIYYCAISGTGFTYWGQGTLVTVSA VL: DIALTQSPASLAVSLGQRATISCRASQSVSTSRYSYMHWYQQKPGQPPELLIKYASNLESGVPARFSGSGSGTDFTLNIHPVGEEDTATYYCQHSWDFPFTFGSGTKLEIKR : 0.05

According to the records, this binder HCV 208A-741 (antibody, V domains shown) VH: QLQQSGPVLVKPGASVMISCKTSGYTFTENAMHWVKQSHGKSLEWIGGVNPNNGDTIFNQKFKGKATLTVDKSSSTAFMELRSLTSEESTVYYCVRRELDFFDYWGQGTSVTVSS VL: DIVLTQSPASLAVSLGQRTTISCGASQSVSTSRFSYMHWYQQKPGQPPKLLIKYASNLESGVPARFSGSGSGTDFTLNIHPVAEEDTAAYYCQHSWEFPFTFGSGTKLEIKR displays Reactivity (OD492) of 1.2

Reference source for all entries: patent US9371374
